# STUDY_SYSTEM: NADPH oxidase 2 (Homo sapiens)
# ASSAY_COMMENT: NOX2-dependent H2O2 signal modulators, primary screen, NOX inhibitor project, cell-based, HEK293-NOX2, PMA-stimulated, Amplex Red fluorescence (AID 1159); also: test concentration not given here
# MEASUREMENT_SETUP: 45 min, higher = more signal, called active from +8 up or from −8 down
Our labelling divides records by z-score into ranges: category 1: < 0.2; category 2: ≥ 0.2 and < 1; category 3: ≥ 1

Each molecule maps to one class by z-score. Which class for C=CCNC(=O)[C@H]1[C@@H]2C(=O)O[C@@H](c3ccccc3)[C@@H](c3ccccc3)N2[C@@H](c2ccccc2OCCO)[C@]12C(=O)N(C(=O)OCCOC)c1ccc(C#CCNC(N)=O)cc12 ? category 3

Each molecule maps to one class by z-score. Which class for COc1ccc([Si](C)(C)[C@H]2[C@H](CCO)O[C@@]3(C(=O)N(Cc4ccccc4)c4ccc(N5C(=O)c6cccc7cccc5c67)cc43)[C@@H]2C)cc1 ? category 1

Each molecule maps to one class by z-score. Which class for COCCOC(=O)N1C(=O)[C@@]2(c3cc(C#CCNC(N)=O)ccc31)[C@H](c1ccc(OCCO)cc1)N1[C@H](c3ccccc3)[C@H](c3ccccc3)OC(=O)[C@H]1[C@@H]2C(=O)Nc1nc2ccccc2s1 ? category 2

Each molecule maps to one class by z-score. Which class for O=C(NCC(O)CO)[C@]1(Cc2ccccc2)N=C(c2ccc(OCCCO)cc2)O[C@@H]1c1ccccc1 (some centres undefined) ? category 2

Each molecule maps to one class by z-score. Which class for C=C[C@H](OC)[C@@H](OC(=O)Nc1ccc(SC)cc1)c1ccc(OC)c(O)c1 ? category 1

Each molecule maps to one class by z-score. Which class for COc1cccc([C@@H]2[C@@H](C)CC[C@H]3C(=O)N(C)[C@@H](C(C)C)C(=O)N23)c1 ? category 2

Each molecule maps to one class by z-score. Which class for COc1ccc([Si](C)(C)[C@@H]2[C@@H](CCO)O[C@]3(C(=O)N(Cc4ccccc4)c4ccccc43)[C@H]2C)cc1 ? category 3

Each molecule maps to one class by z-score. Which class for C[C@H]1COC(=O)[C@@H]2CCCN2C(=O)[C@@H](C)COC(=O)[C@@H]2CCCN2C1=O ? category 2

Each molecule maps to one class by z-score. Which class for COc1cc(CO)cc(I)c1O[C@H]1C=C(C(=O)NCCO)C[C@@H](NCCc2c[nH]c3ccccc23)[C@@H]1O ? category 1

Each molecule maps to one class by z-score. Which class for CO[C@H]1COC(=O)CC=C[C@H](C)[C@@H](OC)COC(=O)CC=C[C@@H]1C ? category 2

Each molecule maps to one class by z-score. Which class for O=C1OCC=C[C@H]2OC34C=CCN(Cc5ccccc5)C(=O)[C@H]3N(CCCCCO)C(=O)[C@@H]4[C@@H]12 (some centres undefined) ? category 3

Each molecule maps to one class by z-score. Which class for COCCOC(=O)N1C(=O)[C@@]2(c3cc(C#CCC(C(=O)OC)C(=O)OC)ccc31)[C@H](c1ccccc1OCCO)N1[C@H](c3ccccc3)[C@H](c3ccccc3)OC(=O)[C@H]1[C@@H]2C(=O)N1CCCCCCC1 ? category 1

Each molecule maps to one class by z-score. Which class for Cc1ccc(S[C@]2(C(=O)NCCN3CCOCC3)CC(=O)N(C3Cc4ccccc4C3)[C@@H]2c2ccc(CO)cc2I)cc1 ? category 3

====

composite z-score overview
# STUDY_SYSTEM: E3 ubiquitin-protein ligase XIAP (Homo sapiens)
# ASSAY_COMMENT: XIAP binders, primary screen, biophysical, small-molecule microarray, fluorescence 635 nm (AID 1181);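 also: score merges 667 nm emission and signal to noise over triplicate slides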
# MEASUREMENT_SETUP: small-molecule microarray binding, higher = more signal
Reply with just the number.

Past entries and their recorded results:
# COMPOUND, composite z-score
measured = [
    ("COc1cccc([C@@H]2[C@@H](C)CC[C@H]3C(=O)N(C)[C@@H](C(C)C)C(=O)N23)c1", 0.258),
    ("COc1ccc(C(O)C2C=CC3C(=O)N(C)C(=O)C3N2N2CCCCC2)cc1OCc1ccccc1 (centres undefined)", -0.0937),
    ("CO[C@H]1COC(=O)[C@H](CCSC)NC(=O)CC=C[C@@H](C)COC(=O)[C@@H](OCc2ccccc2)C=C[C@@H]1C", -0.12),
]

Next up:
GET /values?readout=composite z-score&item= O=C1O[C@@H](c2ccccc2)[C@@H](c2ccccc2)N2[C@@H](c3ccccc3OCCO)[C@]3(C(=O)Nc4ccc(C#CC5=CCCCC5)cc43)[C@@H](C(=O)O)[C@H]12 0.105

====

composite z-score overview
# STUDY_SYSTEM: Calmodulin-1 (Homo sapiens)
# ASSAY_COMMENT: CALM1 binders on microarrays, EGTA buffer, profiling panel, biochemical, small-molecule microarray, Cy5-labelled CALM1 (AID 1111);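 also: labelled calmodulin applied in Tris saline Tween buffer holding calcium plus EGTA and DTT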
# MEASUREMENT_SETUP: Cy5-CALM1 binding fluorescence, higher = more signal
Reply with just the number.

# COMPOUND, STUDY_SYSTEM, MEASURED_METRIC, VALUE_REPORTED
data = [
    ("COc1cccc([C@@H]2[C@@H](C)CC[C@H]3C(=O)N(C)[C@@H](C(C)C)C(=O)N23)c1", "Calmodulin-1 (Homo sapiens)", "composite z-score", -0.169),
    ("COC(=O)C1=C(C)N(Cc2ccccc2)c2c(C(=O)OC)c(C(=O)OC)c(C(=O)OC)c(=O)n2[C@@H]1c1ccccc1", "Calmodulin-1 (Homo sapiens)", "composite z-score", 1.61),
    ("COCCOC(=O)N1C(=O)[C@@]2(c3cc(C#CC4=CCCCC4)ccc31)[C@H](c1ccc(O)cc1)N1[C@H](c3ccccc3)[C@H](c3ccccc3)OC(=O)[C@H]1[C@@H]2C(=O)N1CCCCCCC1", "Calmodulin-1 (Homo sapiens)", "composite z-score", 1.11),
]

GET /values?readout=composite z-score&item= CO[C@H]1O[C@H](CO)[C@@H](OC(=O)Nc2ccc3c(c2)OCO3)[C@H](OC(=O)Nc2ccccc2)[C@@H]1OC(=O)Nc1ccccc1 1.01

GET /values?readout=composite z-score&item= C=CCC(OC(C)=O)[C@@H]1[C@@H](N(Cc2ccc(-c3ccccc3)cc2)C(=O)c2ccc(C)cc2)c2cc(OCCCO)ccc2N1C(=O)c1ccc(-c2ccccc2)cc1 (stereo not given in full) 0.218

GET /values?readout=composite z-score&item= C[N+](C)(C)CCCC[C@@H]1NC(=O)[C@H]2C[C@@H](C(=O)NCc3ccc(F)cc3)[C@@H](c3cccc(OCCO)c3)N2C1=O 0.884

GET /values?readout=composite z-score&item= CCCC=C(CCC)[C@@H](NS(=O)(=O)c1cccc(C(F)(F)F)c1)c1ccc(C(=O)OC)cc1 0.266

GET /values?readout=composite z-score&item= C=C(COC)/C(=C/C[C@@H](OC(C)=O)c1cccc(OCCO)c1)c1cc(C(=O)OC)ccc1OC -0.39

GET /values?readout=composite z-score&item= C=CC[C@]1(C(N)=O)N=C(c2ccc(OCCCO)cc2)O[C@H]1c1ccccc1CN=[N+]=[N-] 1.91

GET /values?readout=composite z-score&item= CC(C)N1CC=CC23O[C@@H]4/C=C\CCCOC(=O)C4[C@H]2C(=O)N(CCCCCO)[C@@H]3C1=O (stereo not given in full) -2.24

====

# STUDY_SYSTEM: Epidermal growth factor receptor (Homo sapiens)
# ASSAY_COMMENT: EGFR binders on small-molecule microarrays, primary screen, biochemical, small-molecule microarray, 635 nm fluorescence (AID 1104);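 also: score merges 667 nm emission intensity with spot signal to noise over triplicate slides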
# MEASUREMENT_SETUP: EGFR binding, higher = more signal
Our labelling divides records by composite z-score into ranges: bottom bin: < -0.3; middle bin: ≥ -0.3 and < 0.4; top bin: ≥ 0.4

Each compound maps to one class by composite z-score. Which class for CCOC(=O)C[C@H]1[C@H](OC(=O)c2cc3ccccc3oc2=O)[C@@H](NC(=O)C2CCCCC2)c2cc(OCCCO)ccc2N1C(=O)c1ccc2ccccc2n1 ? middle bin

Each compound maps to one class by composite z-score. Which class for CCCNC(=O)[C@@H]1c2ccccc2C(=O)N(Cc2cc(F)cc(C(F)(F)F)c2)[C@H]1c1ccc(CO)cc1 ? top bin

Each compound maps to one class by composite z-score. Which class for Cc1ccc(N2C(=O)c3ccccc3[C@](C)(C(=O)NCC(C)C)[C@@H]2c2ccc(CO)cc2)nc1 ? bottom bin

Each compound maps to one class by composite z-score. Which class for CC(=O)NCCCC[C@@H]1NC(=O)[C@H]2C[C@@H](C(=O)NCCCCCCN(C)C)[C@@H](c3ccc(O)cc3)N2C1=O ? top bin

Each compound maps to one class by composite z-score. Which class for Cc1ccc(S(=O)(=O)N2[C@@H](c3ccccc3)C(C(=O)O)=CC[C@H]2c2ccccc2)cc1 ? middle bin

Each compound maps to one class by composite z-score. Which class for CCCC=C(CCC)[C@@H](NS(=O)(=O)c1cccc(C(F)(F)F)c1)c1ccc(C(=O)OC)cc1 ? bottom bin

Each compound maps to one class by composite z-score. Which class for CSCC[C@@H]1NC(=O)CC=C[C@@H](C)COC(=O)[C@H](CCSC)NC(=O)CC=C[C@@H](C)COC1=O ? top bin

Each compound maps to one class by composite z-score. Which class for CC[C@@H]1C=C(C(=O)O)[C@H](c2ccccc2)N1S(=O)(=O)c1ccc([N+](=O)[O-])cc1 ? bottom bin

Each compound maps to one class by composite z-score. Which class for COc1cc2c(cc1OC)CN(C(=O)[C@@H]1[C@H]3C(=O)O[C@H](c4ccccc4)[C@H](c4ccccc4)N3[C@H](c3ccccc3OCCO)[C@@]13C(=O)Nc1ccccc13)CC2 ? middle bin
